- System Under Test: LRRK2(G2019S mutation, GST-LRRK2(amino acids 970-2527)) (Homo sapiens (Human), UniProt Q5S007, G2019S)
- Sequence (Q5S007 970-2527 G2019S): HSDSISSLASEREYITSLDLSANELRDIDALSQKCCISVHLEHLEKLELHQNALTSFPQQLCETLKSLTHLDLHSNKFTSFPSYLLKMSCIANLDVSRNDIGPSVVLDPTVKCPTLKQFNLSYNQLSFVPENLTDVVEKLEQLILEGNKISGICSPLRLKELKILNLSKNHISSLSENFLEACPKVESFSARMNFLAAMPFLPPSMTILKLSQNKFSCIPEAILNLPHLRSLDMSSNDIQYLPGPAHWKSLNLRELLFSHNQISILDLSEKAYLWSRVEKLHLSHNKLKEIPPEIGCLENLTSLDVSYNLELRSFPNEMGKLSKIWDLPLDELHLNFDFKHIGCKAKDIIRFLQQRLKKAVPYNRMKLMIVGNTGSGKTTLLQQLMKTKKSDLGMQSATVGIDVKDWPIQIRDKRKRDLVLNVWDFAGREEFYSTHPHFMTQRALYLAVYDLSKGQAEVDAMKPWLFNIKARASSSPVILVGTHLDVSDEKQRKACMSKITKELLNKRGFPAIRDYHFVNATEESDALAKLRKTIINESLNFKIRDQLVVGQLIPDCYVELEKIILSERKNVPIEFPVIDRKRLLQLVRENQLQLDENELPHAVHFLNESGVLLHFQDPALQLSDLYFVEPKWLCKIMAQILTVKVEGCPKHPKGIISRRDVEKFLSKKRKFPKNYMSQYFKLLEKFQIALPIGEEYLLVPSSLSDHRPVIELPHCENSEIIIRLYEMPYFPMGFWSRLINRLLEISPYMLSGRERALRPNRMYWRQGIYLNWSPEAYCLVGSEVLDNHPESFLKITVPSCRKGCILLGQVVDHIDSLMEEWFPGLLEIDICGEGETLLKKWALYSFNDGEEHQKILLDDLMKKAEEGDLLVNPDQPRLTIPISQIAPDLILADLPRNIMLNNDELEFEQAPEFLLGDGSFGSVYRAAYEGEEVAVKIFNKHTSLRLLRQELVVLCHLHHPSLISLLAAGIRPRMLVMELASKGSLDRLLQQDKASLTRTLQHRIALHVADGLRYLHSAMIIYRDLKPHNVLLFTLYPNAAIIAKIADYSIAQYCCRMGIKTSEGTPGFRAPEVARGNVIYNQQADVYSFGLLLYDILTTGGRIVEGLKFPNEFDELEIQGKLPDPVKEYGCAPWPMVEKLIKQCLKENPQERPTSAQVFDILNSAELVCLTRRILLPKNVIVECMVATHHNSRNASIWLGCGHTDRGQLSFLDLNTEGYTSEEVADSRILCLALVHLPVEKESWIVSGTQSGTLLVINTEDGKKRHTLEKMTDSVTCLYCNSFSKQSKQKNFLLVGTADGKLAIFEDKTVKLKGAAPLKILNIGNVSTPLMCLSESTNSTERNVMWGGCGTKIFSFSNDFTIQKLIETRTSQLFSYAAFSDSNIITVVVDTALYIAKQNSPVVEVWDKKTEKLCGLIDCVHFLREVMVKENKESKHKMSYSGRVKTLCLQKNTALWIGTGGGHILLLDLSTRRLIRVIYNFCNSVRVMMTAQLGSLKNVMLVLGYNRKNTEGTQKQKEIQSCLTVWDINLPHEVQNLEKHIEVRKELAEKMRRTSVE
- Test Method Notes: LRRK2 Km ATP LanthaScreen Assay
- Type: biochemical
- Reported Conditions: Examples O1-O23
- Method: Unless otherwise noted, all LRRK2 IC50 data presented in tables refers to the LRRK2 Km ATP LanthaScreen™ Assay that is described in the Biological Assay section. […] e) Plates are incubated at room temperature for 1 hour and read on an Envision™ multi-mode plate reader with LanthaScreen™ settings. Results are analysed using Assay Data Analyzer.
Outcome Measure: pIC50
Notebook: values listed as pIC50 are -log10 of the concentration (mol/L).

| Compound | Obs Value |
| --- | --- |
| COC[C@H](C)Oc1ccc2[nH]nc(-c3cc(N4CCn5ncnc5C4)ncn3)c2c1 | 7.69 |
| COCC1CN(c2cc(-c3n[nH]c4ccc(O[C@@H](C)COC)cc34)ncn2)CCO1 (some centres unmarked) | 8.44 |
| COC[C@H](C)Oc1ccc2[nH]nc(-c3cc(N4CCC(F)(F)CC4)ncn3)c2c1 | 8.10 |
| COC[C@H](C)Oc1ccc2[nH]nc(-c3cc(N4CCOC[C@H]4C)ncn3)c2c1 | 7.69 |

Query string: Return reported pIC50; argument: `COC[C@H](C)Oc1ccc2[nH]nc(-c3cc(N4CC(OC)C4)ncn3)c2c1`
Result string: 8.25

Query string: Return reported pIC50; argument: `COC[C@H](C)Oc1ccc2[nH]nc(-c3cc(N4CCN(C)C(=O)C4)ncn3)c2c1`
Result string: 7.96

---

- System Under Test: kinases (Homo sapiens, UniProt P15056, V600E)
- Sequence (P15056 2-766 V600E limits assumed): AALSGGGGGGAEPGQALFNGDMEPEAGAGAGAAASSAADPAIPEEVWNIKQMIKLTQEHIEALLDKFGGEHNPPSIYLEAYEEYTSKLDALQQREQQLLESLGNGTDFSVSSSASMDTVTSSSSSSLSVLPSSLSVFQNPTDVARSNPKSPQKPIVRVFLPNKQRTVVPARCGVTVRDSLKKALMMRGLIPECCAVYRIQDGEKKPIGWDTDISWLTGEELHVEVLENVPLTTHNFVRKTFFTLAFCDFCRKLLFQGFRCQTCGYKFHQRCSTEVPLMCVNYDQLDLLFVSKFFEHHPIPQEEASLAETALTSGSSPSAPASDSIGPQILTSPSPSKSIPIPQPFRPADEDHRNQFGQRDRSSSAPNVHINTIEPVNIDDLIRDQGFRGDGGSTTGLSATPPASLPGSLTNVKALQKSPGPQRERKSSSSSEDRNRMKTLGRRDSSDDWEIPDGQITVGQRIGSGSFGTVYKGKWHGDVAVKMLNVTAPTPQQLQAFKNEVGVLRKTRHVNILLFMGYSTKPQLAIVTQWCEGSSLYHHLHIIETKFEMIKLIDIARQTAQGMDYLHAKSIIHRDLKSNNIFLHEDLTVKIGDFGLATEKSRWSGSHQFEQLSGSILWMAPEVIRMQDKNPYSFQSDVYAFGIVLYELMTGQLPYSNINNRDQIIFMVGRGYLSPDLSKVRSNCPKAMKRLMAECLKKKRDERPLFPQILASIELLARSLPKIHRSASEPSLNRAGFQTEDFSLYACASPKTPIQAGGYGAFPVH
- Test Method Notes: Kinase selectivity using Z'-LYTE or Adapta
- Format: biochemical
- Reported Conditions: 1 μM of Example; Z-LYTE platform
Outcome Measure: percent inhibition BRAF V599E (%)
Respond with the bare value in %.

| Compound | Outcome Measure | Obs Value |
| --- | --- | --- |
| CC(C)Oc1ccc2[nH]nc(-c3cc(N4CCO[C@H](C)C4)ncn3)c2c1 [Example D2] | percent inhibition BRAF V599E | −11 |

Query string: Return reported percent inhibition BRAF V599E; argument: CC(C)Oc1ccc2[nH]nc(-c3cc(N4CCOCC4)ncn3)c2c1 [Example D6]
Result string: 2

Query string: Return reported percent inhibition BRAF V599E; argument: CC(C)Oc1ccc2[nH]nc(-c3cc(N4CCN(CCF)CC4)ncn3)c2c1 [Example D15]
Result string: 28

Query string: Return reported percent inhibition BRAF V599E; argument: CC(C)Oc1cc2c(-c3cc(N4CCN(C)CC4)ncn3)n[nH]c2cc1F [Example D25]
Result string: 7

---

- System Under Test: LRRK2(G2019S mutation, GST-LRRK2(amino acids 970-2527)) (Homo sapiens (Human), UniProt Q5S007, G2019S)
- Test Method Notes: LRRK2 Km ATP LanthaScreen Assay
- Assay type: biochemical
- Reported Conditions: Km ATP (184 μM ATP solution), G2019S LRRK2, mean IC50
pIC50 values by entry
Notebook: values listed as pIC50 are -log10 of the concentration (mol/L).

| Compound | pIC50 |
| --- | --- |
| Cn1cc(-c2ccc3[nH]nc(-c4cc(N5CCN6C(=O)OCC6C5)ncn4)c3c2)cn1 (stereo not shown) | 8.20 |
| CC(C)Oc1ccc2[nH]nc(-c3cc(N4CCOC(C)(C)C4)ncn3)c2c1 | 8.20 |
| CC(C)Oc1ccc2[nH]nc(-c3cc(N4CCCN(S(C)(=O)=O)CC4)ncn3)c2c1 | 7.29 |
| C[C@H]1CN(c2cc(-c3n[nH]c4ccc(-c5cnn(C)c5)cc34)ncn2)CCO1 | 8.66 |
| C[C@H]1CN(c2cc(-c3n[nH]c4cc(F)c(-c5cnn(C)c5)cc34)ncn2)CCO1 | 7.58 |
| CC(C)Oc1ccc2[nH]nc(-c3cc(N4CCN(c5ccncn5)CC4)ncn3)c2c1 | 7.80 |
| CCOc1ccc2[nH]nc(-c3cc(N4CC5CCC(C4)O5)ncn3)c2c1 | 7.49 |
| CN1CCN(c2cc(-c3n[nH]c4cc(F)c(-c5cnn(C)c5)cc34)ncn2)CC1=O | 7.42 |

Now for the compound whose pIC50 we want.
Query string: Return reported pIC50; argument: `Cn1cc(-c2ccc3[nH]nc(-c4cc(N5CCOC(C)(C)C5)ncn4)c3c2)cn1`
Result string: 8.05

---

- System Under Test: LRRK2(G2019S mutation, GST-LRRK2(amino acids 970-2527)) (Homo sapiens (Human), UniProt Q5S007, G2019S)
- Test Method Notes: LRRK2 5 mM ATP LanthaScreen Assay
- Type: biochemical
IC50 values by entry
Respond with the bare value in nM.

| Smiles Str | Obs Value |
| --- | --- |
| CCN1CCN(c2cc(-c3n[nH]c4ccc(-c5cnn(C)c5)cc34)ncn2)CC1 | 14 |
| CC(C)Oc1ccc2[nH]nc(-c3cc(N4CCN(CCF)CC4)ncn3)c2c1 | 34 |
| CC(C)Oc1cc2c(-c3cc(N4CCN(S(C)(=O)=O)CC4)ncn3)n[nH]c2cc1F | 28 |
| COCCN1CCN(c2cc(-c3n[nH]c4ccc(OC(C)C)cc34)ncn2)CC1 | 24 |

Query string: Return reported IC50; argument: `COC[C@H](C)Oc1ccc2[nH]nc(-c3cc(N4CCOCC4)ncn3)c2c1`
Result string: 33

Query string: Return reported IC50; argument: `Cn1cc(-c2ccc3[nH]nc(-c4cc(N5CCOCC5)ncn4)c3c2)cn1`
Result string: 41

Query string: Return reported IC50; argument: `CC(C)Oc1ccc2[nH]nc(-c3cc(N4CCC5(CCNC5=O)CC4)ncn3)c2c1`
Result string: 30

Query string: Return reported IC50; argument: `Cn1cc(-c2ccc3[nH]nc(-c4cc(N5CCN(S(C)(=O)=O)CC5)ncn4)c3c2)cn1`
Result string: 36

---

pIC50 values by entry
- System Under Test: LRRK2(G2019S mutation, GST-LRRK2(amino acids 970-2527)) (Homo sapiens (Human), UniProt Q5S007, G2019S)
- Test Method Notes: LRRK2 Km ATP LanthaScreen Assay
- Type: biochemical
- Reported Conditions: Km ATP (184 μM ATP solution), G2019S LRRK2, mean IC50
Notebook: values listed as pIC50 are -log10 of the concentration (mol/L).

Would you please look over these solved cases?
| Molecule | pIC50 |
| --- | --- |
| COC1CCN(c2cc(-c3n[nH]c4ccc(-c5cnn(C)c5)cc34)ncn2)CC1 | 8.69 |
| COC[C@H](C)Oc1ccc2[nH]nc(-c3cc(N4CCC5(CCC(=O)N5)CC4)ncn3)c2c1 | 8.36 |
| Cn1cc(-c2cc3c(-c4cc(N5CCc6oncc6C5)ncn4)n[nH]c3cc2F)cn1 | 6.34 |
| CC(C)Oc1ccc2[nH]nc(-c3cc(N4CC[S+]([O-])CC4)ncn3)c2c1 [Example J13] | 7.68 |
| Cn1cc(-c2cc3c(-c4cc(N5CC[S+]([O-])CC5)ncn4)n[nH]c3cc2F)cn1 | 6.88 |
| COCCN(C)c1cc(-c2n[nH]c3ccc(OC(C)C)cc23)ncn1 | 7.18 |
| CC(C)Oc1ccc2[nH]nc(-c3cc(N4C[C@@H]5C[C@H]4CO5)ncn3)c2c1 | 8.23 |

Now for the molecule whose pIC50 we want.
Query string: Return reported pIC50; argument: `CC(C)Oc1ccc2[nH]nc(-c3cc(N4CCC(O)(C(F)(F)F)CC4)ncn3)c2c1`
Result string: 7.98

---

pIC50 values by entry
- System Under Test: LRRK2(G2019S mutation, GST-LRRK2(amino acids 970-2527)) (Homo sapiens (Human), UniProt Q5S007, G2019S)
- Test Method Notes: LRRK2 Km ATP LanthaScreen Assay
- Format: biochemical
- Reported Conditions: Km ATP (184 μM ATP solution), G2019S LRRK2, mean IC50
Notebook: values listed as pIC50 are -log10 of the concentration (mol/L).

Query string: Return reported pIC50; argument: CC(C)Oc1ccc2[nH]nc(-c3cc(N4CCC5(CCNC5=O)CC4)ncn3)c2c1 [Example D32]
Result string: 8.64

---

- Tested on: kinases
- Test Method Notes: Kinase selectivity using Z'-LYTE or Adapta
- Type: biochemical
- Reported Conditions: 1 μM of Example; Z-LYTE platform
Outcome Measure: percent inhibition JAK3
Write your answer as a measured quantity: the number, then the unit.

Would you please look over these solved cases?
| Compound | Outcome Measure | Obs Value |
| --- | --- | --- |
| CC(C)Oc1ccc2[nH]nc(-c3cc(N4CCO[C@H](C)C4)ncn3)c2c1 [Example D2] | percent inhibition JAK3 | 8% |
| CC(C)Oc1ccc2[nH]nc(-c3cc(N4CCN(CCF)CC4)ncn3)c2c1 [Example D15] | percent inhibition JAK3 | 9% |
| CC(C)Oc1ccc2[nH]nc(-c3cc(N4CCOCC4)ncn3)c2c1 [Example D6] | percent inhibition JAK3 | 5% |

Now for the compound whose percent inhibition JAK3 we want.
Query string: Return reported percent inhibition JAK3; argument: CC(C)Oc1cc2c(-c3cc(N4CCN(C)CC4)ncn3)n[nH]c2cc1F [Example D25]
Result string: 8%

Cited source for all entries: patent US9416126B2
